# target_of_assay: EGFR del19/C797S (Homo sapiens, UniProt P00533, C797S/DEL746-750)
# Sequence (P00533 with tags, fused parts or gaps DEL746-750/C797S): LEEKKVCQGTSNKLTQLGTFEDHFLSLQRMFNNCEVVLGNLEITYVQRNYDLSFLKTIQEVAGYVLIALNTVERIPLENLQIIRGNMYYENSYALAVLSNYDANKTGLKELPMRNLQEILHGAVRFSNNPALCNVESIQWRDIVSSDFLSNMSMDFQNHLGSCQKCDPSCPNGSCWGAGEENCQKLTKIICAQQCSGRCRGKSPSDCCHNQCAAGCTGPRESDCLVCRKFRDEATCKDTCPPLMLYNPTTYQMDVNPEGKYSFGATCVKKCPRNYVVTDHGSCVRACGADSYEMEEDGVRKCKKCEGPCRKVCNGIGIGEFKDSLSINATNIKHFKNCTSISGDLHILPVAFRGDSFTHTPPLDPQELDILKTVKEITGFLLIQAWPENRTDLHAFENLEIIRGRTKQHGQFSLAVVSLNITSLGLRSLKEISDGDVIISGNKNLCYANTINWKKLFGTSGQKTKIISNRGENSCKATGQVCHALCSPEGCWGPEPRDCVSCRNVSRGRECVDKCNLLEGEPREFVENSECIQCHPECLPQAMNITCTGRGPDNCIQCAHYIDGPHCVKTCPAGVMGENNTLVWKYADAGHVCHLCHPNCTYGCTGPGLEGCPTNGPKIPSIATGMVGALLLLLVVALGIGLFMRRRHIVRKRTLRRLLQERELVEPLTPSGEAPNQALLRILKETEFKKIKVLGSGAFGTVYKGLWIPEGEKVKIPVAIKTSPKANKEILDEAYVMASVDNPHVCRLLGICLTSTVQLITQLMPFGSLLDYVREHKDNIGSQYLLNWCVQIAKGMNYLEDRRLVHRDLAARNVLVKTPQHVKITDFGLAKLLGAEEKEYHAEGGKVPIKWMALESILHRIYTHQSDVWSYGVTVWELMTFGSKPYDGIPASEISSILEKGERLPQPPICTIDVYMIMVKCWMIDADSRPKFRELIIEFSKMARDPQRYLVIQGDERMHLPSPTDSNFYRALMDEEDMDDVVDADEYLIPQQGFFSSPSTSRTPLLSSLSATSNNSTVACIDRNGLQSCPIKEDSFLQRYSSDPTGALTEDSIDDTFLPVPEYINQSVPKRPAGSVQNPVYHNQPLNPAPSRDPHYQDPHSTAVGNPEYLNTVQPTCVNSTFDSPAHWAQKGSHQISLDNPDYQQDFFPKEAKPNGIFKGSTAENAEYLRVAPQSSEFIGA
# test_protocol: Biochemical EGFR kinase assay (Lance Ultra TR-FRET), double mutant del19/C797S
# run_parameters: Km ATP; read-out: IC50 del19/C797S (nM) Km ATP
quantity: IC50 (nM)
Could you give me the number in nM? Just the number is fine.

Quick one: IC50 of CC(C)(O)c1cnc(-c2cnc(Nc3ccnc(-c4cnn(S(=O)(=O)C5CC5)c4)n3)cc2N[C@H]2CC[C@@](C)(O)CC2)cn1 [Example 118] ? 0.1

May I ask what IC50 has been recorded for CN(C)c1ccc(-c2cnc(Nc3ccnc(-c4cnn(S(=O)(=O)C5CC5)c4)n3)cc2N[C@H]2CC[C@@](C)(O)CC2)nc1 [Example 40] ? 2.3

Would you kindly share the measured IC50 for CN1CCN(Cc2ccc(-c3cnc(Nc4ccnc(-c5cnn(S(=O)(=O)C6CC6)c5)n4)cc3N3CCC(C)(CO)CC3)nc2)CC1 [Example 1] ? 37.5

So what's the measured IC50 for this one? C[C@]1(O)CC[C@@H](Nc2cc(Nc3ccnc(-c4cnn(S(=O)(=O)C5CC5)c4)n3)ncc2-c2cnc(OC3CCOCC3)cn2)CC1 [Example 148] 2

Please give the measured IC50 for this compound: C[C@]1(O)CC[C@@H](Nc2cc(Nc3ccnc(-c4cnn(S(=O)(=O)C5CC5)c4)n3)ncc2-c2ccc(N3CCC(F)(F)CC3)cn2)CC1 [Example 47] 3.2

Look at this compound and give its reported IC50. C[C@]1(O)CC[C@@H](Nc2cc(Nc3ccnc(-c4cnn(S(=O)(=O)C5CC5)c4)n3)ncc2-c2ncccc2OCC(F)(F)F)CC1 [Example 333] 460

Recorded IC50 for CN(C)C[C@H]1CC[C@@H](Nc2cc(Nc3ccnc(-c4cnn(S(=O)(=O)C5CC5)c4)n3)ncc2-c2cnc(N3CCC(F)(F)CC3)cn2)CC1 [Example 74] , please? 0.7

For CC(C)Nc1cc(Nc2ccnc(-c3cnn(S(=O)(=O)C4CC4)c3)n2)ncc1-c1cnc(C(C)(C)O)cn1 [Example 121] , what is its reported IC50? 4.6

Dear colleague, I am looking for the recorded IC50 of the following compound: O=S(=O)(C1CC1)n1cc(-c2nccc(Nc3cc(N[C@H]4CC[C@@H](NCCF)CC4)c(-c4ccccn4)cn3)n2)cn1 [Example 36] 0.5

Any idea what its IC50 is? The compound is CN1CCN(Cc2ccnc(-c3cnc(Nc4ccnc(-c5cnn(S(=O)(=O)C6CC6)c5)n4)cc3N[C@H]3CC[C@@](C)(O)CC3)c2)CC1 [Example 55] 0.5

# get_value(readout='IC50', item= C[C@]1(O)CC[C@@H](Nc2cc(Nc3ccnc(-c4cnn(S(=O)(=O)C5CC5)c4)n3)ncc2-c2ccc(N3CCCC3)cn2)CC1 [Example 80] ) 2.5

For the compound shown here, CN1CCC(Oc2ccc(-c3cnc(Nc4ccnc(-c5cnn(CC(F)F)c5)n4)cc3N[C@H]3CC[C@@H](F)CC3)nc2)CC1 [Example 133] , give the reported IC50. 1.7

I would be grateful if you could share the reported IC50 for C[C@]1(O)CC[C@@H](Nc2cc(Nc3ccnc(-c4cnn(S(=O)(=O)C5CC5)c4)n3)ncc2-c2ccc(N3CCCCC3)cn2)CC1 [Example 54] . 5.6

Data request, read-out IC50, for CC(C)(O)[C@H]1CC[C@@H](Nc2cc(Nc3ccnc(-c4cnn(S(=O)(=O)C5CC5)c4)n3)ncc2-c2ccc(CN3CCOCC3)cn2)CC1 [Example 25] 0.5

Give its IC50 value. Item: FC(F)Cn1cc(-c2nccc(Nc3cc(N[C@H]4CC[C@@H](F)CC4)c(-c4ccc(N5CCOCC5)cn4)cn3)n2)cn1 [Example 137] 74.4

Would you mind telling me what IC50 value was observed for CN(C)c1ccnc(-c2cnc(Nc3ccnc(-c4cnn(S(=O)(=O)C5CC5)c4)n3)cc2N[C@H]2CC[C@@](C)(O)CC2)n1 [Example 41] ? 4.5

Name the recorded IC50 for CN1CCC(Oc2ccc(-c3cnc(Nc4ccnc(-c5cnc6c(c5)CCCO6)n4)cc3N[C@H]3CC[C@@](C)(O)CC3)nc2)CC1 [Example 142] . 2

So what's the measured IC50 for this one? COC1CN(c2ccc(-c3cnc(Nc4ccnc(-c5cnn(S(=O)(=O)C6CC6)c5)n4)cc3N[C@H]3CC[C@@](C)(O)CC3)nc2)C1 [Example 90] 0.4

I'd like to know its IC50. The compound in question is CN(C)C[C@H]1CC[C@@H](Nc2cc(Nc3ccnc(-c4cnn(S(=O)(=O)C5CC5)c4)n3)ncc2-c2cnc(OC(F)F)cn2)CC1 [Example 131] 2.1

Sample COc1c(F)ccnc1-c1cnc(Nc2ccnc(-c3cnn(CC(F)F)c3)n2)cc1N[C@H]1CC[C@@](C)(O)CC1 [Example 336] — what was its IC50? 3820

// returns reported IC50 for input Cc1cc(-c2cnc(Nc3ccnc(-c4cnn(S(=O)(=O)C5CC5)c4)n3)cc2N[C@H]2CC[C@@](C)(O)CC2)nnc1C [Example 50] 0.5

State the recorded IC50 for this entry: CN1CCC(Oc2ccc(-c3cnc(Nc4ccnc(-c5cnn(S(=O)(=O)C6CC6)c5)n4)cc3NC3CC(F)(F)C3)nc2)CC1 [Example 140] 8.3

If you can, please state the reported IC50 value of CN1CCC(Oc2cnc(-c3cnc(Nc4ccnc(-c5cnn(S(=O)(=O)C6CC6)c5)n4)cc3N[C@H]3CC[C@@](C)(O)CC3)cn2)CC1 [Example 145] . 0.3

I have this compound here, O=S(=O)(C1CC1)n1cc(-c2nccc(Nc3cc(N[C@H]4CC[C@@H](CO)CC4)c(-c4cc(N5CCC(F)(F)CC5)ccn4)cn3)n2)cn1 [Example 100] , and I need its recorded IC50. 6.5

Given the entry FC(F)Cn1cc(-c2nccc(Nc3cc(N[C@H]4CC[C@@H](F)CC4)c(-c4ccc(CN5CCOCC5)cn4)cn3)n2)cn1 [Example 136] , report its measured IC50. 19.1
